Attribution: patent US4192871A

# assay overview: dissolution of the 11β-aminoester salts in aqueous acid (Table 5 and Examples 101, 225-229)
# Format: physicochemical
# conditions: method C: ethanol evaporated, residue in water, undissolved material weighed; WT. of solution Ex. 118: 10; 120: 10.4; 148: 9.54; 152: 5.6; 154: 9.1; 155: 8.77; 156: 9.06; 157: 9.5; 158: 9.38; 159: 9.17; 179: 9.65; 180: 11.7; 182: 4.9; 202: 12.05; 213: 12; 214: 11.5; 215: 11.1; 216: 11.6; 217: 12.1 g
property name: Dissolved aminoester (mg)
Write the value in mg as a bare number.

The cases that follow already have their Dissolved aminoester on record.
compound="CCCN(CCC)CC(=O)O[C@H]1C[C@]2(C)[C@@H](C(C)=O)CC[C@H]2[C@@H]2CC[C@H]3C[C@H](O)CC[C@]3(C)[C@H]21 [Example 154]" unit_string=mg recorded_number=91
compound="CC(=O)[C@H]1CC[C@H]2[C@@H]3CC[C@H]4C[C@H](O)CC[C@]4(C)[C@H]3[C@@H](OC(=O)CN3CCCCC3)C[C@]12C [Example 156]" unit_string=mg recorded_number=90.3

Read the next record carefully.
For this compound ( CC(=O)[C@H]1CC[C@H]2[C@@H]3CC[C@H]4C[C@H](O)CC[C@]4(C)[C@H]3[C@@H](OC(=O)CN3CCCC3)C[C@]12C [Example 155] ), measured Dissolved aminoester is 87.7
